IgE binding (% of patients) values, listed per item
# Tested on: serum IgE of cow's milk allergic patients
# method_description: IgE binding capacity (IgE reactivity) of milk components with patients' sera
# Parameters: species or system human
# recorded_conditions: sera of cow's milk allergic patients (n=78)

molecule	IgE binding (% of patients)
beta-lactoglobulin variant A (protein, natural purified protein) LIVTQTMKGLDIQKVAGTWYSLAMAASDISLLDAQSAPLRVYVEELKPTPEGDLEILLQKWENDECAQKKIIAEKTKIPAVFKIDALNENKVLVLDTDYKKYLLFCMENSAEPEQSLVCQCLVRTPEVDDEALEKFDKALKALPMHIRLSFNPTQLEEQCHI	50.0 % of patients
recombinant beta-casein (protein, expressed in E. coli) RELEELNVPGEIVESLSSSEESITRINKKIEKFQSEEQQQTEDELQDKIHPFAQTQSLVYPFPGPIPNSLPQNIPPLTQTPVVVPPFLQPEVMGVSKVKEAMAPKHKEMPFPKYPVEPFTESQSLTLTDVENLHLPLPLLQSWMHQPHQPLPPTVMFPPQSVLSLSQSKVLPVPQKAVPYPQRDMPIQAFLLYQEPVLGPVRGPFPIIV	55.1 % of patients
beta-casein (protein, UniProt P02666 16-224, looked up, natural purified protein) Beta-casein: RELEELNVPGEIVESLSSSEESITRINKKIEKFQSEEQQQTEDELQDKIHPFAQTQSLVYPFPGPIPNSLPQNIPPLTQTPVVVPPFLQPEVMGVSKVKEAMAPKHKEMPFPKYPVEPFTESQSLTLTDVENLHLPLPLLQSWMHQPHQPLPPTVMFPPQSVLSLSQSKVLPVPQKAVPYPQRDMPIQAFLLYQEPVLGPVRGPFPIIV	44.9 % of patients
recombinant aS2-casein (protein, expressed in E. coli) KNTMEHVSSSEESIISQETYKQEKNMAINPSKENLCSTFCKEVVRNANEEEYSIGSSSEESAEVATEEVKITVDDKHYQKALNEINQFYQKFPQYLQYLYQGPIVLNPWDQVKRNAVPITPTLNREQLSTSEENSKKTVDMESTEVFTKKTKLTEEEKNRLNFLKKISQRYQKFALPQYLKTVYQHQKAMKPWIQPKTKVIPYVRYL	9.0 % of patients

meta.source: patent US20100143262A1
